system name: VIM-1 (Pseudomonas aeruginosa (strain ATCC 15692 / DSM 22644 / CIP 104116 / JCM 14847 / LMG 12228 / 1C / PRS 101 / PAO1), UniProt A0A0F7KYQ8)
assay notes: biochemical
condition notes: VIM-1 IC50, fluorescence assay, CCF2-FA substrate, 30 pM enzyme, 2 hours at 25° C.
Parameter: IC50. Scope: all listed entries.
endpoint: IC50 (nM)

>>> df
                                   compound  number
0  C[C@H](CN)NS(=O)(=O)c1ccc(-c2cccc3sc(N)nc23)c(-c2nnn[nH]2)c1S(N)(=O)=O    0.26
1  N[C@@H]1CNC[C@@H]1NS(=O)(=O)c1ccc(-c2cccn3ccnc23)c(-c2nn[nH]n2)c1S(N)(=O)=O   0.165
2  Nc1ccc(-c2ccc(S(=O)(=O)NC[C@H]3CNCCN3)c(S(N)(=O)=O)c2-c2nn[nH]n2)cn1   0.211
3  CN1CC[C@@H](NS(=O)(=O)c2ccc(-c3cccc4[nH]c(N)nc34)c(-c3nn[nH]n3)c2S(N)(=O)=O)C1    0.16
4  NCCNS(=O)(=O)c1ccc(-c2cccc(NC[C@@H](O)CN)c2)c(-c2nn[nH]n2)c1S(N)(=O)=O   0.379
5  Nc1nc2c(-c3ccc(S(=O)(=O)NCC(N)C(F)F)c(S(N)(=O)=O)c3-c3nnn[nH]3)cccc2s1.O=CO (stereo not shown) [Example 118, formate]   0.289
6  Nc1nc2c(-c3ccc(S(=O)(=O)N[C@@H]4CN[C@H](CO)C4)c(S(N)(=O)=O)c3-c3nnn[nH]3)cccc2s1   0.158

The reported measurements were obtained from patent US10221163B2.
